Molecular target: T1, cynomolgus FLT3 expressed on CHO-S cells (cynomolgus, UniProt A0A2K5VQ48 27-993)
T1 construct: whole, on cells
Test: flow cytometry (iQue Screener PLUS) on CHO-S cells transiently expressing cynomolgus FLT3; AF647 anti-human IgG (H+L) secondary; GeoMean RL1-H; 12-point titration
Measured Parameter: EC50 (read off the curve)

A selection of reference data follows.
binder="anti-FLT3 antibody 17497 (antibody, human IgG1, kappa, L234A L235A, V domains shown, Human IgG1-LALA / kappa) VH: QVQLQESGPGLVKPSGTLSLTCAVSGGSISSTNWWSWVRQPPGKGLEWIGEISHRGSTNYNPSLKSRVTISVDKSKNQFSLKLSSVTAADTAVYYCARDPEMTLYYYYGMDVWGQGTTVTVSS VL: DIQMTQSPSSLSASVGDRVTITCRASRGIRNDLGWYQQKPGKAPKRLIYAASSLQSGVPSRFSGSGSGTEFTLTISSLQPEDFATYYCLQHNSYPLTFGGGTKVEIKR" meas_value="~0.01 µg/mL"
binder="anti-FLT3 antibody 17543 (antibody, human IgG1, kappa, L234A L235A, V domains shown, Human IgG1-LALA / kappa) VH: QVTLKESGPVLVKPTETLTLTCTVSGFSLINARMGVTWIRQPPGKALEWLAHIFSNDEKSYSTSLKSRLTISKDTSKSQVVLTMTNMDPVDTATYYCARIPGYSRGWDYYYYGMDVWGQGTMVTVSS VL: DIQMTQSPSSLSASVGDRVTITCRASQGIRNDLGWYQQKPGKAPKRLIYAASTLQSGVPSRFSGSGSGTEFTLTISSLQPEDFATYYCLQHNSYPWTFGQGTKVEIKR" meas_value="~0.04 µg/mL"
binder="anti-FLT3 antibody 17566 (antibody, human IgG1, kappa, L234A L235A, V domains shown, Human IgG1-LALA (L234A/L235A) / kappa, germline-corrected variable domains) VH: QVTLKESGPVLVKPTETLTLTCTVSGFSFNNARMGVNWIRQPPGKALEWLAHIFSNDEKSYSTSLKSRLTISKDISKSQVVLTMTNMDPVDTATYYCARIVGYGSGWRLLGDYWGQGTLVTVSS VL: AIQMTQSPSSLSASVGDRVTITCRASQGITNDLGWYQQKPGKAPKLLIYAASSLQSGVPSRFSGSGSGTDFTLTISSLQPEDFATYYCLQDYNYPWTFGQGTKVEIKR" meas_value="~0.03 µg/mL"

What value of EC50 (read off the curve) has been reported for the following binder? anti-FLT3 antibody 17679 (antibody, human IgG1, kappa, L234A L235A, V domains shown, Human IgG1-LALA / kappa) VH: QVQLQESGPGLVKPSQTLSLTCTVSGGSISSGGYYWSWIRQHPGKGLEWIGYIYYSGRTNYNPSLKSRVTISEDTSKNQFSLKVSSVTAADTAVYYCARDQDGSGWYFDYWGQGALVTVSS VL: EIVLTQSPATLSLSPGERATLSCRASQSVSSYLAWYQQKPGQAPRLLIYDASNRATGIPARFSGSGSGTDFTLTIRSLEPEDFAVYYCQQRSNWWTFGQGTKVEIKR
~0.04 µg/mL

FYI, the data here is from patent US20250179195A1.
